Test: Concentration required to cause 50% inhibition of platelet activating factor (PAF)-induced platelet aggregation of human platelet rich plasma when challenged with 25 nM PAF.
IC50: recorded values

[
  {
    "molecule": "CCC(=O)N1CCC(=C2c3ccc(Cl)cc3CCc3cccnc32)CC1",
    "reported-metric": "IC50",
    "observed-result": "2.4 µM"
  }
]

GET /values?readout=IC50&item= CC(=O)N1CCC(=C2c3ccccc3CCc3cccnc32)CC1
1.4 µM

GET /values?readout=IC50&item= CC(=O)N1CCC(=C2c3cc(Cl)ccc3CCc3cccnc32)CC1
3.4 µM

GET /values?readout=IC50&item= CC(=O)N(C)CC/C=C1\c2ccc(Cl)cc2CCc2cccnc21
> 50 µM

GET /values?readout=IC50&item= O=CN1CCC(=C2c3ccc(Cl)cc3CCc3cccnc32)CC1
13 µM

GET /values?readout=IC50&item= CC(=O)N1CCC(=C2c3ccc(Br)cc3CCc3cccnc32)CC1
0.81 µM

GET /values?readout=IC50&item= CC(=O)N1CCC(=C2c3ccccc3CCc3ccccc32)CC1
41 µM

GET /values?readout=IC50&item= CN(C)CCC(c1ccc(Cl)cc1)c1ccccn1 (stereo unspecified)
> 50 µM

GET /values?readout=IC50&item= CC(=O)N1CCC(=C2c3ccc(O)cc3CCc3cccnc32)CC1
8.7 µM

GET /values?readout=IC50&item= CC(=O)N1CCC(=C2c3cc(F)c(F)cc3CCc3cccnc32)CC1
1 µM

GET /values?readout=IC50&item= CC(=O)N1CCC(=C(c2ccc(Cl)cc2)c2ccccn2)CC1
28 µM
